Tested on: isolated cat papillary muscle
Test: Positive inotropic effect: % change in contractile force in isolated cat papillary muscle
Details: Felis catus; 310 μg/ml; read-out: % change in Contractile Force (CF)
measuredQuantity: activation at 310 µg/mL (%)

- smilesRepresentation: "CCCNc1ncnc2c1nc(SCc1ccccc1)n2[C@@H]1O[C@@H]2COP(=O)(O)O[C@H]2[C@H]1O"
  experimentalSystem: "isolated cat papillary muscle"
  measuredQuantity: "activation at 310 µg/mL"
  endpointResult: 30
- smilesRepresentation: "CCCCNc1ncnc2c1nc(SCc1ccccc1)n2[C@@H]1O[C@@H]2COP(=O)(O)O[C@H]2[C@H]1O"
  experimentalSystem: "isolated cat papillary muscle"
  measuredQuantity: "activation at 310 µg/mL"
  endpointResult: 39
- smilesRepresentation: "CCNc1ncnc2c1nc(SCc1ccccc1)n2[C@@H]1O[C@@H]2COP(=O)(O)O[C@H]2[C@H]1O"
  experimentalSystem: "isolated cat papillary muscle"
  measuredQuantity: "activation at 310 µg/mL"
  endpointResult: 88
- smilesRepresentation: "CN(C)c1ncnc2c1nc(SCc1ccccc1)n2[C@@H]1O[C@@H]2COP(=O)(O)O[C@H]2[C@H]1O"
  experimentalSystem: "isolated cat papillary muscle"
  measuredQuantity: "activation at 310 µg/mL"
  endpointResult: 118
- smilesRepresentation: "CCCCNc1ncnc2c1nc(Sc1ccc(Cl)cc1)n2[C@@H]1O[C@@H]2COP(=O)(O)O[C@H]2[C@H]1O"
  experimentalSystem: "isolated cat papillary muscle"
  measuredQuantity: "activation at 310 µg/mL"
  endpointResult: 101
- smilesRepresentation: "O=P1(O)OC[C@H]2O[C@@H](n3c(Sc4ccc(Cl)cc4)nc4c(Nc5ccccc5)ncnc43)[C@H](O)[C@@H]2O1"
  experimentalSystem: "isolated cat papillary muscle"
  measuredQuantity: "activation at 310 µg/mL"
  endpointResult: 82.3

Reference for the values: patent US4058659A
